Target: human MRGPRD (Homo sapiens)
Test: MRGPRD antagonist activity, IP-One HTRF assay in CHO cells stably expressing human MRGPRD (versus 100 μM β-Alanine agonist)
Assay type: cell-based
pIC50: −log10 of the molar value.
Listed here are compounds together with their documented pIC50.

> print(dat)
                                smilesinput                  assaysystem   resultvalue
1  Cc1ncccc1CNC(=O)c1nnn(-c2ccc(-c3ccc(CC#N)cc3)cc2)c1C1CC1  human MRGPRD (Homo sapiens)  6.30 to 7.00
2  Cc1oncc1-c1ccc(-n2nnc(C(=O)Nc3ccncc3)c2C2CC2)cc1  human MRGPRD (Homo sapiens)  6.30 to 7.00
3  O=C(Nc1ccncc1)c1nnn(-c2cccc(-c3cnn(C(F)F)c3)c2)c1C1CC1  human MRGPRD (Homo sapiens)        < 5.52

**Query** What does the data say about its pIC50? Entry: CN(C)c1ccc(-c2ccc(-n3nnc(C(=O)Nc4ccncc4)c3C3CC3)cc2)cc1
**Result** 6.30 to 7.00

**Query** What does the data say about its pIC50? Entry: Cc1nn(C)c(C)c1-c1ccc(-n2nnc(C(=O)Nc3ccncc3)c2C(C)C)cc1
**Result** > 7.00

* * *

Target: human MRGPRD (Homo sapiens)
Assay: MRGPRD antagonist activity, IP-One HTRF assay in CHO cells stably expressing human MRGPRD (versus 100 μM β-Alanine agonist)
pIC50: −log10 of the molar value.
readoutName: pIC50

Some solved entries appear below for comparison.
> print(dat)
                                   compound                  assaysystem  readoutname   resultvalue
1  N#Cc1ccc(C2=CCC(n3nnc(C(=O)NC4(c5cccnc5)CC4)c3C3CC3)CC2)cc1 (centres unmarked)  human MRGPRD (Homo sapiens)        pIC50  5.52 to 6.00
2  O=C(Nc1cncc2[nH]ncc12)c1nnn(-c2ccc(-c3ccccc3)cc2)c1C1CC1  human MRGPRD (Homo sapiens)        pIC50  5.52 to 6.00
3  CC(O)c1cccc(-c2ccc(-n3nnc(C(=O)Nc4ccncc4)c3C3CC3)cc2)c1 (centres unmarked)  human MRGPRD (Homo sapiens)        pIC50  6.00 to 6.30
4  CCn1nc(C)c(-c2ccc(-n3nnc(C(=O)NCc4ccc(C)nc4)c3C3CC3)cc2)c1C  human MRGPRD (Homo sapiens)        pIC50  6.30 to 7.00
5  Cc1cc(NC(=O)c2nnn(C3CC=C(c4c(C)nn(C)c4C)CC3)c2C2CC2)ccn1 (centres unmarked)  human MRGPRD (Homo sapiens)        pIC50  6.30 to 7.00

**Query** What does the data say about its pIC50? Entry: CCc1cccc(-c2cccc(-n3nnc(C(=O)Nc4ccncc4)c3C3CC3)c2)c1
**Result** 5.52 to 6.00

**Query** What does the data say about its pIC50? Entry: Cc1ccc(C2(NC(=O)c3nnn(-c4ccc(-c5ccc(C#N)cc5C)cc4)c3C3CC3)CC2)cn1
**Result** 6.30 to 7.00

**Query** What does the data say about its pIC50? Entry: Cc1nn(-c2ccccc2)c(C)c1-c1ccc(-n2nnc(C(=O)NC3(c4cncc(Cl)c4)CC3)c2C2CC2)cc1
**Result** 6.30 to 7.00

**Query** What does the data say about its pIC50? Entry: O=C(Nc1ccncc1)c1nnn(-c2ccc(-c3n[nH]c4ncccc34)cc2)c1C1CC1
**Result** 6.30 to 7.00

**Query** What does the data say about its pIC50? Entry: CCn1cc(CNC(=O)c2nnn(-c3ccc(-c4ccc(C(N)=O)cc4)cc3)c2C2CC2)cn1
**Result** 5.52 to 6.00

**Query** What does the data say about its pIC50? Entry: CCn1cc(CNC(=O)c2nnn(-c3ccc(-c4ccc(C#N)cc4)cn3)c2C2CC2)cn1
**Result** 5.52 to 6.00

* * *

Target: human MRGPRD (Homo sapiens, UniProt Q8TDS7)
Sequence (Q8TDS7 whole entry): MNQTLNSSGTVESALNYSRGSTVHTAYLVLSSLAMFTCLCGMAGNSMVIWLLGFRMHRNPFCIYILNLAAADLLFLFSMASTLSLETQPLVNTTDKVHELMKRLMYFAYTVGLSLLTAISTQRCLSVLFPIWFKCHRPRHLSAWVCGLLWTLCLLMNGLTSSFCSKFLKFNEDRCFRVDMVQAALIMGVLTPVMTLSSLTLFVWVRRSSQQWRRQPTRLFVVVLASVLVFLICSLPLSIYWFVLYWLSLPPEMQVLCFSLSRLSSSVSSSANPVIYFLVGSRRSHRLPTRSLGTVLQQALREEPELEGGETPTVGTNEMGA
Assay: MRGPRD antagonist activity, IP-One HTRF assay in CHO cells stably expressing human MRGPRD (versus 100 μM β-Alanine agonist)
readoutName: IC50

Some solved entries appear below for comparison.
> print(dat)
                                smilesinput                               assaysystem  readoutname      resultvalue
1  O=C(Nc1ccncc1)c1nnn(-c2ccc(-c3ccccn3)cc2)c1C1CC1  human MRGPRD (Homo sapiens, UniProt Q8TDS7)         IC50  1000 to 3000 nM
2  CCn1cc(CNC(=O)c2nnn(-c3ccc(-c4ccc(C#N)cc4)cc3)c2C2CC2)cn1  human MRGPRD (Homo sapiens, UniProt Q8TDS7)         IC50    100 to 500 nM
3  C[C@H](NC(=O)c1nnn(-c2ccc(-c3ccccc3)cc2)c1C1CC1)c1ccccc1  human MRGPRD (Homo sapiens, UniProt Q8TDS7)         IC50        > 3000 nM

Proceeding to the next molecule to report its IC50.
**Query** What does the data say about its IC50? Entry: COc1ccc(C2(NC(=O)c3nnn(-c4ccc(-c5ccc(C#N)c(F)c5)cc4)c3C3CC3)CC2)cn1
**Result** 100 to 500 nM

* * *

Listed here are molecules together with their documented IC50.
Target: human MRGPRD (Homo sapiens, UniProt Q8TDS7)
Assay: MRGPRD antagonist activity, IP-One HTRF assay in CHO cells stably expressing human MRGPRD (versus 100 μM β-Alanine agonist)

Some solved entries appear below for comparison.
> print(dat)
                                   molecule  readoutname      resultvalue
1  COc1cncc(C2(NC(=O)c3nnn(-c4ccc(-c5ccc(C#N)cc5)cc4)c3C3CC3)CC2)c1         IC50  1000 to 3000 nM
2  Cc1cc(-n2nnc(C(=O)Nc3ccncc3)c2C2CC2)ccc1-c1c(C)nn(C)c1C [Compound 7-271]         IC50   500 to 1000 nM
3  O=C(Nc1ccncc1)c1nnn(-c2ccc(-c3ccnn3C3CCC3)cc2)c1C1CC1         IC50   500 to 1000 nM

**Query** Notebook entry, human MRGPRD (Homo sapiens, UniProt Q8TDS7) assay: IC50 of O=C(Nc1ccncc1)c1nnn(-c2ccc(-c3cncnc3)cc2)c1C1CC1 = ?
**Result** 1000 to 3000 nM

**Query** Notebook entry, human MRGPRD (Homo sapiens, UniProt Q8TDS7) assay: IC50 of CC(C)C(=O)c1ccc(-c2ccc(-n3nnc(C(=O)Nc4ccncc4)c3C3CC3)cc2)cc1 = ?
**Result** 100 to 500 nM

**Query** Notebook entry, human MRGPRD (Homo sapiens, UniProt Q8TDS7) assay: IC50 of O=C(Nc1ccncc1)c1nnn(-c2ccc(C3=CCOCC3)cc2)c1C1CC1 = ?
**Result** 500 to 1000 nM

**Query** Notebook entry, human MRGPRD (Homo sapiens, UniProt Q8TDS7) assay: IC50 of O=C(NC1CCSCC1)c1nnn(-c2ccc(-c3ccccc3)cc2)c1C1CC1 = ?
**Result** 1000 to 3000 nM

**Query** Notebook entry, human MRGPRD (Homo sapiens, UniProt Q8TDS7) assay: IC50 of CC(NC(=O)c1nnn(-c2ccc(-c3ccc(C#N)cc3)cc2)c1C1CC1)c1cnn(C)c1 (stereo not drawn) = ?
**Result** 1000 to 3000 nM

**Query** Notebook entry, human MRGPRD (Homo sapiens, UniProt Q8TDS7) assay: IC50 of CCc1cc(C)ccc1-n1nnc(C(=O)Nc2ccncc2)c1C1CC1 = ?
**Result** 1000 to 3000 nM

**Query** Notebook entry, human MRGPRD (Homo sapiens, UniProt Q8TDS7) assay: IC50 of CN(C)C(=O)c1ccccc1-c1ccc(-n2nnc(C(=O)Nc3ccncc3)c2C2CC2)cc1 = ?
**Result** > 3000 nM

**Query** Notebook entry, human MRGPRD (Homo sapiens, UniProt Q8TDS7) assay: IC50 of Cc1nn(C)c(C)c1-c1ccc(-n2nnc(C(=O)Nc3ccc(NS(C)(=O)=O)cc3)c2C2CC2)cc1 = ?
**Result** 1000 to 3000 nM

**Query** Notebook entry, human MRGPRD (Homo sapiens, UniProt Q8TDS7) assay: IC50 of CN(Cc1ccc(N2CCOCC2)cc1)C(=O)c1nnn(-c2ccc(-c3ccccc3)cc2)c1C1CC1 = ?
**Result** > 3000 nM

* * *

Target: human MRGPRD (Homo sapiens, UniProt Q8TDS7)
Assay: MRGPRD antagonist activity, IP-One HTRF assay in CHO cells stably expressing human MRGPRD (versus 100 μM β-Alanine agonist)
Listed here are molecules together with their documented IC50.

Some solved entries appear below for comparison.
> print(dat)
                                   molecule      resultvalue
1  CC(NC(=O)c1nnn(-c2ccc(-c3ccccc3)cc2)c1C1CC1)c1ccc(S(C)(=O)=O)cc1 (stereo not drawn) [Compound 14-47]  1000 to 3000 nM
2  Cn1cc(-c2ccc(-n3nnc(C(=O)Nc4ccncc4)c3C3CC3)cc2)c(C2CC2)n1 [Compound 7-218]        > 3000 nM
3  O=C(Nc1ccncc1)c1nnn(-c2ccc(-c3ccc4[nH]ccc4c3)cc2)c1C1CC1 [Compound 7-196]  1000 to 3000 nM
4  Cc1c(-c2ccc(-n3nnc(C(=O)Nc4ccncc4)c3C3CC3)cc2)c(C#N)nn1C [Compound 7-120]   500 to 1000 nM
5  Cc1nn(CC(F)(F)F)c(C)c1-c1ccc(-n2nnc(C(=O)Nc3ccncc3)c2C2CC2)cc1 [Compound 7-17]         < 100 nM

Proceeding to the next molecule to report its IC50.
**Query** What does the data say about its IC50? Entry: Cn1nc(C2CC2)cc1-c1ccc(-n2nnc(C(=O)Nc3ccncc3)c2C2CC2)cc1 [Compound 7-109]
**Result** 100 to 500 nM
